Where do these numbers come from? They come from patent US20110319362A1.

Below, each entry is listed with its recorded pIC50.
- System name: STAT3 protein (Homo sapiens, UniProt P40763)
- Construct: human STAT3 protein (residues 122-722) fused to His-tag; His-tag
- Sequence (P40763 122-722): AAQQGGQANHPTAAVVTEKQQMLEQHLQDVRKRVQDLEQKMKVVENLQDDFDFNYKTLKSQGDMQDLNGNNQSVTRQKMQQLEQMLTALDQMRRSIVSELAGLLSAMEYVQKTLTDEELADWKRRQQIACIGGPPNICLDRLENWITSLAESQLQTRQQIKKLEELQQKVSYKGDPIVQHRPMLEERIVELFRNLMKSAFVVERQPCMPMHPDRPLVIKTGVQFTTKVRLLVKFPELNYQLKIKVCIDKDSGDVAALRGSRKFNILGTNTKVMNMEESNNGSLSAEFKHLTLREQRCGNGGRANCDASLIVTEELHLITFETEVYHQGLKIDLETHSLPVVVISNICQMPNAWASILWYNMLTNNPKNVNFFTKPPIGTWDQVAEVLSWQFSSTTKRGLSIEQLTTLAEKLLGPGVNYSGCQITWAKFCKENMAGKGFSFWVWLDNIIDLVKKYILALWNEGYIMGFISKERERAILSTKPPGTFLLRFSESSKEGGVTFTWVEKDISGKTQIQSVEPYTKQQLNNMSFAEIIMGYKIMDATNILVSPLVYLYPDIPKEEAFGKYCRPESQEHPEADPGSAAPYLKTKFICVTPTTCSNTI
- Measurement protocol: In vitro competitive STAT3 binding assay (fluorescence polarization)
- Recorded conditions: FP competitive binding, fluorescently tagged STT2 peptide tracer; read-out: Binding affinities to STAT3 IC50
pIC50: −log10 of the molar value.
Property measured: pIC50

* CCCCCCCCCCCCCCCCN1CCN(CCC(=O)N[C@@H](Cc2ccc(OP(=O)(O)O)cc2)C(=O)N[C@H]2CCCCC3CC[C@@H](C(=O)N[C@@H](CCC(N)=O)C(=O)NCc4ccccc4)N3C2=O)CC1 (stereo partly shown) | > 6.00
* O=C(O)CCc1ccc(CCC(=O)N[C@H]2CCCC[C@H]3CC[C@@H](C(=O)NCC[C@H](O)CO)N3C2=O)cc1 [Example 4] | < 4.00
* C[C@H](NC(=O)[C@@H]1CC[C@@H]2CCCC[C@H](NC(=O)[C@@H](N)Cc3ccc(OC(C(=O)O)C(=O)O)cc3)C(=O)N21)C(=O)NCc1ccccc1 [Example 10] | < 4.00
* N=C(N)NCCC[C@H](NC(=O)[C@@H]1CC[C@@H]2CCCC[C@H](NC(=O)[C@@H](N)Cc3ccc(OP(=O)(O)O)cc3)C(=O)N21)C(=O)NCc1ccccc1 [Example 12] | < 5.30
* CP(=O)(O)CCCCCC(=O)N[C@H]1CCCCC2CC[C@@H](C(=O)N[C@@H](CCC(N)=O)C(=O)NCc3ccccc3)N2C1=O (stereo partly shown) | < 4.00
* O=C(N[C@@H](Cc1ccc(OP(=O)(O)O)cc1)C(=O)N[C@H]1CCCC[C@H]2CC[C@@H](Cn3cc(-c4ccccc4)nn3)N2C1=O)OCc1ccccc1 [Example 9] | < 4.70
* CN(C)[C@@H](Cc1ccc(OCP(=O)(O)O)cc1)C(=O)NC1CCCC[C@H]2CC[C@@H](C(=O)N[C@@H](Cc3c[nH]cn3)C(=O)NCc3ccccc3)N2C1=O (stereo in doubt) [Example 33] | < 4.00
* CCCCCCCCCCCCCCCCN1CCN(CCC(=O)N[C@@H](Cc2ccc(OP(=O)(O)O)cc2)C(=O)N[C@H]2CCCCC3CC[C@@H](C(=O)N[C@H](CO)Cc4c[nH]cn4)N3C2=O)CC1 (stereo partly shown) | > 5.30
* CN(C)[C@@H](Cc1ccc(OP(=O)(O)O)cc1)C(=O)N[C@H]1CCCCC2CC[C@@H](C(=O)N[C@@H](CNC(=N)N)C(=O)NCc3ccccc3)N2C1=O (stereo partly shown) | > 4.00
* NC(=O)CCC(NC(=O)[C@@H]1CCC2CCCC[C@H](NC(=O)c3cc4cc(C(F)(F)P(=O)(O)O)ccc4o3)C(=O)N21)C(=O)NCc1ccccc1 (stereo partly shown) [Example 65] | < 5.00
* CCCCCCCCCCCCCCCCN1CCN(CCC(=O)N[C@@H](Cc2ccc(OP(=O)(O)O)cc2)C(=O)N[C@H]2CCCCC3CC[C@@H](C(=O)NCCCCNC)N3C2=O)CC1 (stereo partly shown) | > 5.00
* N[C@@H](Cc1ccc(CP(=O)(O)O)cc1)C(=O)N[C@H]1CCCC[C@H]2CC[C@@H](C(=O)N[C@@H](Cc3c[nH]cn3)C(=O)NCc3ccccc3)N2C1=O [Example 26] | < 5.00
* CCCNC(=O)[C@@H]1CC[C@@H]2CCCC[C@H](NC(=O)[C@H](Cc3ccc(OP(=O)(O)O)cc3)NC(=O)OCc3ccccc3)C(=O)N21 [Example 15] | > 4.52
* NCCCCNC(=O)[C@@H]1CC[C@@H]2CCCC[C@H](NC(=O)[C@H](Cc3ccc(OP(=O)(O)O)cc3)NC(=O)OCc3ccccc3)C(=O)N21 [Example 14] | > 5.00
* NC(=O)CC[C@H](NC(=O)[C@@H]1CC[C@@H]2CCCC[C@H](NC(=O)CCc3ccc(CP(=O)(O)O)cc3)C(=O)N21)C(=O)NCc1ccccc1 [Example 25] | < 4.00
* CN(C)CCCCNC(=O)[C@@H]1CCC2CCCC[C@H](NC(=O)[C@H](Cc3ccc(OP(=O)(O)O)cc3)NC(=O)OCc3ccccc3)C(=O)N21 (stereo partly shown) | > 4.52
* CC(=O)N1CCC2CC[C@@H](C(=O)N[C@@H](CCC(N)=O)C(=O)NCc3ccccc3)N2C(=O)[C@@H](NC(=O)[C@@H](N)Cc2ccc(OP(=O)(O)O)cc2)C1 (stereo partly shown) | > 5.30
* NC(=O)CC[C@H](NC(=O)[C@@H]1CC[C@@H]2CCCC[C@H](NC(=O)CCc3ccc(CCC(=O)O)cc3)C(=O)N21)C(=O)NCc1ccccc1 [Example 5] | < 4.00
* CN[C@@H](Cc1ccc(OP(=O)(O)O)cc1)C(=O)N[C@H]1CCCCC2CC[C@@H](C(=O)N[C@@H](Cc3c[nH]cn3)C(=O)NCc3ccccc3)N2C1=O (stereo partly shown) | > 4.52
* CCCCCCCCNC(=O)[C@H](CCC(N)=O)NC(=O)[C@@H]1CCC2CCCC[C@H](NC(=O)[C@H](Cc3ccc(OP(=O)(O)O)cc3)NC)C(=O)N21 (stereo partly shown) | > 5.30
* CCCCCCCCCCCCCCCCCCCCNC(=O)[C@H](CCC(N)=O)NC(=O)[C@@H]1CCC2CCCC[C@H](NC(=O)[C@H](Cc3ccc(OP(=O)(O)O)cc3)NC)C(=O)N21 (stereo partly shown) | > 5.30
* CC(=O)N[C@@H](Cc1ccc(O)cc1)C(=O)N[C@H]1CCCC[C@H]2CC[C@@H](C(=O)N[C@@H](CCC(N)=O)C(=O)NCc3ccccc3)N2C1=O [Example 6] | < 4.00

###

- System name: STAT3 protein (Homo sapiens, UniProt P40763)
- Construct: human STAT3 protein (residues 122-722) fused to His-tag; His-tag
- Measurement protocol: In vitro competitive STAT3 binding assay (fluorescence polarization)
- Recorded conditions: FP competitive binding, fluorescently tagged STT2 peptide tracer; read-out: Binding affinities to STAT3 IC50
Property measured: IC50

- O=C(CCc1ccccc1)N[C@@H](Cc1ccc(OP(=O)(O)O)cc1)C(=O)N[C@H]1CCCCC2CC[C@@H](C(=O)N[C@@H](CCC(=O)NC(c3ccccc3)(c3ccccc3)c3ccccc3)C(=O)NCc3ccccc3)N2C1=O (some centres unmarked): < 20 µM
- CP(=O)(O)Cc1ccc(CCC(=O)N[C@H]2CCCCC3CC[C@@H](C(=O)N[C@@H](CCC(N)=O)C(=O)NCc4ccccc4)N3C2=O)cc1 (some centres unmarked): > 100 µM
- Cn1c(C(=O)N[C@H]2CCCCC3CC[C@@H](C(=O)NC(CCC(N)=O)C(=O)NCc4ccccc4)N3C2=O)cc2cc(C(F)(F)P(=O)(O)O)ccc21 (some centres unmarked): < 5 µM
- CC(=O)NCCC[C@H](NC(=O)[C@@H]1CCC2CCCC[C@H](NC(=O)[C@H](Cc3ccc(OC(C(=O)O)C(=O)O)cc3)N(C)C)C(=O)N21)C(=O)NCc1ccccc1 (some centres unmarked): > 10 µM
- CN[C@@H](Cc1ccc(OC(C(=O)O)C(=O)O)cc1)C(=O)N[C@H]1CCCCC2CC[C@@H](C(=O)N[C@@H](CCCN)C(=O)NCc3ccccc3)N2C1=O (some centres unmarked): > 10 µM
- CNC(=O)CCCNC(=O)[C@@H]1CC[C@@H]2CCCC[C@H](NC(=O)[C@H](Cc3ccc(OP(=O)(O)O)cc3)NC(=O)OCc3ccccc3)C(=O)N21: < 30 µM
- CNCCCNC(=O)[C@@H]1CC[C@@H]2CCCC[C@H](NC(=O)[C@H](Cc3ccc(OP(=O)(O)O)cc3)NC(=O)OCc3ccccc3)C(=O)N21: < 100 µM
- CCCCCCCCCCCCCCCCN1CCN(CCC(=O)N[C@@H](Cc2ccc(OP(=O)(O)O)cc2)C(=O)N[C@H]2CCCCC3CC[C@@H](C(=O)NCCCCN(C)C)N3C2=O)CC1 (some centres unmarked): < 20 µM
- CCCCCCCCCCCCCCCCN1CCN(CCC(=O)N[C@@H](Cc2ccc(OP(=O)(O)O)cc2)C(=O)N[C@H]2CCCCC3CC[C@@H](C(=O)NCCc4cn[nH]c4)N3C2=O)CC1 (some centres unmarked): < 5 µM
- CCCCCCCCCCCCNC(=O)[C@H](CCC(N)=O)NC(=O)[C@@H]1CCC2CCCC[C@H](NC(=O)[C@H](Cc3ccc(OP(=O)(O)O)cc3)NC)C(=O)N21 (some centres unmarked): < 5 µM
- NCCOCCOCCOCCOCCC(=O)N[C@@H](Cc1ccc(OP(=O)(O)O)cc1)C(=O)N[C@H]1CCCCC2CC[C@@H](C(=O)N[C@@H](CCC(N)=O)C(=O)NCc3ccccc3)N2C1=O (some centres unmarked): < 5 µM
